These entries and their values trace back to ChEMBL document CHEMBL4368855.

Assay: Unbound fraction in C57BL/6 mouse liver at 10 mg/kg, ip administered as single dose by mass spectrometry
Assay type: ADME, organism-based
ASSAY_METRIC: fraction unbound

chem_smiles=CN1C(=O)c2cc(NC(=O)c3ccc(C(F)(F)F)cc3)ccc2OC[C@@H]2O[C@H](CC(=O)NC3Cc4ccccc4C3)CC[C@@H]21 value_reported=0.01

(A) CC(C)COC(=O)NC[C@@H]1CC[C@H]2[C@H](COc3ccc(NC(=O)c4ccc(C(F)(F)F)cc4)cc3C(=O)N2C)O1
(B) CN1C(=O)c2cc(NC(=O)c3ccc(C(F)(F)F)cc3)ccc2OC[C@@H]2O[C@H](CNc3nnc(C4CCC4)o3)CC[C@@H]21
Inquiry: Between A and B , which one shows the smaller fraction unbound number? Bench note: the answer is the label of the chosen record.
Reply text: A
